Value source: patent US20170008928A1

target: human cholecystokinin-2 receptor (CCK-2R) (Homo sapiens); construct: host or cells: 1321-N1 cells (plasma membranes prepared by Evotec AG Hamburg); test: In vitro potency on CCK-2R, whole cell functional assay (IP1 accumulation, IP-One HTRF); format: cell-based; details: 1321-N1 cells stably expressing CCK-2R; IP1 accumulation; highest dose tested 1×10^6 pM; read-out: EC50 (CCK-2R)
Sequence (P32239 whole entry): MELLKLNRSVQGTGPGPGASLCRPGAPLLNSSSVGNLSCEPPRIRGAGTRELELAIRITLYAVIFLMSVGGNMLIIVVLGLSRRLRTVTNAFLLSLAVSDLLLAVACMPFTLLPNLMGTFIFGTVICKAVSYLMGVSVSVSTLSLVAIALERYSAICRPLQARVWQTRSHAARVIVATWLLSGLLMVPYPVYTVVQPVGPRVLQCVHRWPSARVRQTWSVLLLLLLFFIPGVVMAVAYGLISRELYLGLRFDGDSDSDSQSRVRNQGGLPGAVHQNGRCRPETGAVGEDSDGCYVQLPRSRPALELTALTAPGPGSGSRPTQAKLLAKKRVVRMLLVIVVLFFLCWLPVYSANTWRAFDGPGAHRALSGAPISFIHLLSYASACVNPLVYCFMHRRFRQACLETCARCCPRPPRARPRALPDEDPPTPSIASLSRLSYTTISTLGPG
Starred links: 1 amine or outer side, 2 acyl side, 3 side chain; linkers in the order of their positions; H or OH if unused. Non-standard residues stand in square brackets, D forms with d. Residues, ends and D or L forms follow the SMILES beside them. *: point of attachment. Phe(4-CH2SO3H) = N[C@@H](Cc1ccc(CS(=O)(=O)O)cc1)C(=O)O; sY = N[C@@H](Cc1ccc(OS(=O)(=O)O)cc1)C(=O)O; C18 diacid = O=C(O)CCCCCCCCCCCCCCCCC(=O)*; NMe1Nal = CN[C@@H](Cc1cccc2ccccc12)C(=O)O; γGlu = O=C(O)[C@H](CCC(=O)[*:2])N[*:1]; Met(O2) = CS(=O)(=O)CC[C@H](N)C(=O)O; NMeF = CN[C@@H](Cc1ccccc1)C(=O)O; dNMeD = CN[C@H](CC(=O)O)C(=O)O; Nle = CCCC[C@H](N)C(=O)O; AEEA = NCCOCCOCC(=O)O

| molecule | EC50 |
| --- | --- |
| CCCC[C@H](NC(=O)[C@H](Cc1c[nH]c2ccccc12)NC(=O)CNC(=O)[C@H](CC(C)C)NC(=O)[C@H](Cc1ccc(OS(=O)(=O)O)cc1)NC(=O)[C@H](CC(=O)O)NC(=O)COCCOCCNC(=O)COCCOCCNC(=O)CC[C@H](NC(=O)CCCCCCCCCCCCCCCCC(=O)O)C(=O)O)C(=O)N(C)[C@H](CC(=O)O)C(=O)N(C)[C@@H](Cc1cccc2ccccc12)C(N)=O [Example 4] ({C18 diacid-γGlu-AEEA-AEEA}-D[sY]LGW[Nle][dNMeD][NMe1Nal]-NH2) | 340 nM |
| CCCC[C@H](NC(=O)[C@H](Cc1c[nH]c2ccccc12)NC(=O)CNC(=O)[C@H](CC(C)C)NC(=O)[C@H](Cc1ccc(CS(=O)(=O)O)cc1)NC(=O)[C@@H](N)CC(=O)O)C(=O)N(C)[C@H](CC(=O)O)C(=O)N(C)[C@@H](Cc1ccccc1)C(N)=O [Example 57] (H-D[Phe(4-CH2SO3H)]LGW[Nle][dNMeD][NMeF]-NH2) | > 1000 nM |
| CCCC[C@H](NC(=O)[C@H](Cc1c[nH]c2ccccc12)NC(=O)CNC(=O)[C@H](CC(C)C)NC(=O)[C@H](Cc1ccc(OS(=O)(=O)O)cc1)NC(=O)[C@H](N)CCC(=O)O)C(=O)N(C)[C@H](CC(=O)O)C(=O)N(C)[C@@H](Cc1ccccc1)C(N)=O [Example 87] (H-[dE][sY]LGW[Nle][dNMeD][NMeF]-NH2) | > 1000 nM |
| CC(C)C[C@H](NC(=O)[C@H](Cc1ccc(OS(=O)(=O)O)cc1)NC(=O)[C@H](CC(=O)O)NC(=O)COCCOCCNC(=O)COCCOCCNC(=O)CC[C@H](NC(=O)CCCCCCCCCCCCCCCCC(=O)O)C(=O)O)C(=O)NCC(=O)N[C@@H](Cc1c[nH]c2ccccc12)C(=O)N[C@@H](CCS(C)(=O)=O)C(=O)N(C)[C@H](CC(=O)O)C(=O)N(C)[C@@H](Cc1ccccc1)C(N)=O [Example 12] ({C18 diacid-γGlu-AEEA-AEEA}-D[sY]LGW[Met(O2)][dNMeD][NMeF]-NH2) | > 1000 nM |
| CCCC[C@H](NC(=O)[C@H](Cc1c[nH]c2ccccc12)NC(=O)CNC(=O)[C@@H](NC(=O)[C@H](Cc1ccc(OS(=O)(=O)O)cc1)NC(=O)[C@@H](N)CC(=O)O)[C@@H](C)CC)C(=O)N(C)[C@H](CC(=O)O)C(=O)N(C)[C@@H](Cc1ccccc1)C(N)=O [Example 81] (H-D[sY]IGW[Nle][dNMeD][NMeF]-NH2) | > 1000 nM |
| CCCC[C@H](NC(=O)[C@H](Cc1c[nH]c2ccccc12)NC(=O)CNC(=O)[C@H](CC(C)C)NC(=O)[C@H](Cc1ccc(OS(=O)(=O)O)cc1)NC(=O)[C@@H](N)CC(=O)O)C(=O)N(C)[C@H](CC(=O)O)C(=O)N(C)[C@@H](Cc1ccccc1)C(N)=O [Example 60] | 380 nM |
